Let's look at some compounds and their measured pIC50.
# target-of-assay: B-RAFV600E (Homo sapiens, UniProt P15056, V600E)
# Sequence (P15056 416-766 V600E limits assumed): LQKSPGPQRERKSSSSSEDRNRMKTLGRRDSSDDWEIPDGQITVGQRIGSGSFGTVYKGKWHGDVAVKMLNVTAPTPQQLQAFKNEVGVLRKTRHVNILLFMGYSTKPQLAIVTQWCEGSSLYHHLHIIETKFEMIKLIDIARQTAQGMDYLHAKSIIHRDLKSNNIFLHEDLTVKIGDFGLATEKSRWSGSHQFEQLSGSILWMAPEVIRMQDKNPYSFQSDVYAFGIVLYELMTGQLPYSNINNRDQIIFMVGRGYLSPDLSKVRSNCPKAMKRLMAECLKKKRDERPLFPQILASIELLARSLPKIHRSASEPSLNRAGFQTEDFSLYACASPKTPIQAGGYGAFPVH
# experiment: B-RAFV600E radiometric assay
# measurement-conditions: read-out: Kinase assay B-Raf
# Method: Compound inhibition for B-RAFV600E was determined through radiometric assay using a BRAF enzyme (Catalog No. 14-557, Millipore, USA) and MEK-K97M protein as a substrate (Catalog No. 0785-0000-1, ProqQinase GmbH, Germany). […] The phosphorylated protein product is detected by the scintillation counter Topcount® machine (Perkin Elmer). […] The labeled phosphorylated protein was measured in MicroBeta® Trilux Counter (Perkin Elmer). […]
pIC50: −log10 of the molar value.

stdin: Please provide the recorded pIC50 for `Nc1ccc(-c2nc(N3CCOCC3)c3cc(-c4cccc(NS(=O)(=O)CCCF)c4F)cc(OC4CCCC4)c3n2)cn1` , tested on B-RAFV600E (Homo sapiens, UniProt P15056, V600E).
stdout: 7.00 to 9.00

stdin: Would you kindly repeat that for `COc1cc(-c2cccc(NS(=O)(=O)CCCF)c2F)cc2c(N3CCOC[C@@H]3C)nc(-c3cnc(N)nc3)nc12` ?
stdout: 6.00 to 7.00

stdin: Would you kindly repeat that for `COc1cc(-c2c(F)ccc(NS(=O)(=O)c3cc(F)ccc3F)c2F)cc2c(N3CCOCC3)nc(-c3ccc(N)nc3)nc12` ?
stdout: 7.00 to 9.00

stdin: Would you kindly repeat that for `COc1cc(-c2cccc(NS(=O)(=O)c3c(F)cccc3F)c2F)cc2c(N3CCOCC3)nc(-c3ccc(N)nc3)nc12` ?
stdout: 7.00 to 9.00

###

# target-of-assay: B-RAFV600E (Homo sapiens, UniProt P15056, V600E)
# experiment: B-RAFV600E radiometric assay
# measurement-conditions: read-out: Kinase assay B-Raf
pIC50: −log10 of the molar value.
measured-quantity: pIC50

Recorded results for 3 compounds are shown here.
>  <input-smiles>
COc1cc(-c2cccc(NS(=O)(=O)CCCF)c2F)cc2c(N3CCOCC3)nc(-c3cnc(N)cc3C(F)(F)F)nc12

>  <readout-value>
7.00 to 9.00

$$$$
>  <input-smiles>
C[C@@H]1COCCN1c1nc(-c2cnc(N)c(F)c2)nc2c(OCCF)cc(-c3cccc(NS(=O)(=O)CCCF)c3F)cc12

>  <readout-value>
7.00 to 9.00

$$$$
>  <input-smiles>
C[C@H]1COCCN1c1nc(-c2cnc(N)nc2)nc2ccc(-c3cccc(NS(=O)(=O)CCCF)c3F)nc12

>  <readout-value>
7.00 to 9.00

$$$$

Pending compound:
stdin: I would be grateful if you could share the reported pIC50 for `Nc1cc(C(F)(F)F)c(-c2nc(N3CCOCC3)c3nc(-c4cccc(NS(=O)(=O)c5c(F)cccc5F)c4F)ccc3n2)cn1` .
stdout: 7.00 to 9.00

###

Let's look at some compounds and their measured IC50.
# target-of-assay: B-RAFV600E (Homo sapiens, UniProt P15056, V600E)
# experiment: B-RAFV600E radiometric assay
# measurement-conditions: read-out: Kinase assay B-Raf

Recorded results for 3 compounds are shown here.
>  <compound>
CCCNc1ccc(-c2nc(N3CCOCC3)c3nc(-c4cccc(NS(=O)(=O)CCCF)c4F)ccc3n2)cn1 [Example 115]

>  <IC50>
1 to 100 nM

$$$$
>  <compound>
COc1cc(-c2cccc(NS(=O)(=O)CCCF)c2F)cc2c(N3CCOC[C@H]3C)nc(-c3cnc4[nH]ccc4c3)nc12 [Example 44]

>  <IC50>
100 to 1000 nM

$$$$
>  <compound>
Cc1cc(-c2cccc(NS(=O)(=O)CCCF)c2F)cc2c(N3CCOCC3)nc(-c3ccc(N)nc3)nc12 [Example 117]

>  <IC50>
1 to 100 nM

$$$$

Pending compound:
stdin: Please provide the recorded IC50 for COc1cc(-c2cccc(NS(=O)(=O)CCCF)c2F)cc2c(N3CCOCC3)nc(-c3ccc(NC(C)=O)cc3)nc12 [Example 125] , tested on B-RAFV600E (Homo sapiens, UniProt P15056, V600E).
stdout: 100 to 1000 nM
